B1: Histidine--tRNA ligase, cytoplasmic, residues 8 to 45; numbered along this chain, P12081 (parent)
chain: EELVKLQGERVRGLKQQKASAELIEEEVAKLLKLKAQL

Variants of: B1
Experiment: abundance fitness (aPCA) (normalised: wild type 0, dead -1); higher = more abundant; growth selection in yeast, the domain comes from the species named
Conditions: Homo sapiens
Please map values of abundance fitness to classes as shown: bottom bin = under -0.2, middle bin = from -0.2 up to -0.06, top bin = -0.06 and over

Returns: class label. Input: EELVKLQGERVRGLKQSKASAELIEEEVAKLLKLKAQL
top bin

Next:
Returns: class label. Input: EELVKLQGERVRGLKQQCASAELIEEEVAKLLKLKAQL
middle bin

Returns: class label. Input: EELVKLQGERVRGLKQQKASAELIEEEVACLLKLKAQL
bottom bin
